# systemName: T1, Peptide 8: Biotin-AEAAAKEAAAKEAAAKEAAAKAAA-Tyr-acid (N-terminal biotin; C-terminal acid)
# T1 construct: control peptide without PC
# T1 peptide: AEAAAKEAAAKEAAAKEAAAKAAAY
# assay: scFv ELISA
experimentalReadout: OD450 (OD450)
# value in OD450; strip the unit string

Ask | Which measured OD450 value corresponds to PcOxP_DB02_H03 (scFv, V domains shown, scFv in periplasmic extract) VH: EVQLLESGGGLVQPGGSLRLSCAASGFTFSDFYMEWVRQAPGKGLEWVAASRNKANDYTTEYADSVKGRFTISRDNSKNTLYLQMNSLRAEDTAVYYCARDYYGSSYWYFDVWGQGTLVTVSS VL: DIQMTQSPSSLSASVGDRVTITCTASESISSSKHKVHYLAWYQQKPGKAPKLLIYGASNLYSGVPSRFSGSGSGTDFTLTISSLQPEDFATYYCAHFYSYPLTFGGGTKVEIK ?
Reply | 0.05

Ask | Fill blank: measured OD450 of the binder PcOxP_DB01_A12 (scFv, V domains shown, scFv in periplasmic extract) VH: EVQLLESGGGLVQPGGSLRLSCAASGFGFSDFYMEWVRQAPGKGLEWVAASRNKWNDYTTEYADSVKGRFTISRDNSKNTLYLQMNSLRAEDTAVYYCARDYYGSSYWYYDVWGQGTLVTVSS VL: DIQMTQSPSSLSASVGDRVTITCTASESLYSSKHKVHYLAWYQQKPGKAPKLLIYGASNREIGVPSRFSGSGSGTDFTLTISSLQPEDFATYYCQQFYSYPLTFGGGTKVEIK is ____.
Reply | 0.05

Ask | Please give the measured OD450 for this binder: PcOxP_DB01_H10 (scFv, V domains shown, scFv in periplasmic extract) VH: EVQLLESGGGLVQPGGSLRLSCAASGFTFSDGYMEWVRQAPGKGLEWVAASRNKNNDYTTEYADSVKGRFTISRDNSKNTLYLQMNSLRAEDTAVYYCARDYYGSSYWYFDVWGQGTLVTVSS VL: DIQMTQSPSSLSASVGDRVTITCTASESLYSSKHKVHYLAWYQQKPGKAPKLLIYGASNRYFGVPSRFSGSGSGTDFTLTISSLQPEDFATYYCAQFYQYPLTFGGGTKVEIK
Reply | 0.06

Ask | Entry PcOxP_DB02_B10 (scFv, V domains shown, scFv in periplasmic extract) VH: EVQLLESGGGLVQPGGSLRLSCAASGFTESDFYMEWVRQAPGKGLEWVAASRNKANDYTTEYADSVKGRFTISRDNSKNTLYLQMNSLRAEDTAVYYCARDYYGSSYWYFDVWGQGTLVTVSS VL: DIQMTQSPSSLSASVGDRVTITCTASESLYSSKHKVHYLAWYQQKPGKAPKLLIYGASNRYIGVPSRFSGSGSGTDFTLTISSLQPEDFATYYCAQFYVYPLTFGGGTKVEIK : reported OD450 = ?
Reply | 0.04

Ask | For the binder shown here, PcOxP_DB01_B08 (scFv, V domains shown, scFv in periplasmic extract) VH: EVQLLESGGGLVQPGGSLRLSCAASGFTFSDSYMEWVRQAPGKGLEWVAASRNKANDYTTSYADSVKGRFTISRDNSKNTLYLQMNSLRAEDTAVYYCARDYYGSSYWYFDVWGQGTLVTVSS VL: DIQMTQSPSSLSASVGDRVTITCTASESLYSSKHKVHYLAWYQQKPGKAPKLLIYGASNRYIGVPSRFSGSGSGTDFTLTISSLQPEDFATYYCAQFYSYPLTFGGGTKVEIK , give the reported OD450.
Reply | 0.05

Ask | For PcOxP_DB03_A03 (scFv, V domains shown, scFv in periplasmic extract) VH: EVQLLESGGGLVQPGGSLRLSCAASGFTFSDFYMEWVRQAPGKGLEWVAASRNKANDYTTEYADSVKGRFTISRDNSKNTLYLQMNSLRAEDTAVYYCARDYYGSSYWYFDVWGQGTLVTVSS VL: DIQMTQSPSSLSASVGDRVTITCTASESLYSSKHKVHYLAWYQQKPGKAPKLLIYGASFRYIGVPSRFSGSGSGTDFTLTISSLQPEDFATYYCAQFYSYPLTFGGGTKVEIK , what is its reported OD450?
Reply | 0.06

Ask | Consider the binder PcOxP_DB01_D08 (scFv, V domains shown, scFv in periplasmic extract) VH: EVQLLESGGGLVQPGGSLRLSCAASGFTFSDAYMEWVRQAPGKGLEWVAASRNKANDYTTEYADSVKGRFTISRDNSKNTLYLQMNSLRAEDTAVYYCARDYYGSSYWYFDSWGQGTLVTVSS VL: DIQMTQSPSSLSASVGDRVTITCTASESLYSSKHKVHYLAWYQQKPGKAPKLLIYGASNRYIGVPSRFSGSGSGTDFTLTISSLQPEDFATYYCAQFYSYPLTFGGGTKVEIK and give its measured OD450.
Reply | 0.05

Ask | Would you kindly share the measured OD450 for PcOxP_DB01_B09 (scFv, V domains shown, scFv in periplasmic extract) VH: EVQLLESGGGLVQPGGSLRLSCAASGFTFSDYYMEWVRQAPGKGLEWVAASRNKANDYTTEYADSVKGRFTISRDNSKNTLYLQMNSLRAEDTAVYYCARDYYGSSYWYFDVWGQGTLVTVSS VL: DIQMTQSPSSLSASVGDRVTITCTASESLYSSKHKVHYLAWYQQKPGKAPKLLIYGASNRYTGVPSRFSGSGSGTDFTLTISSLQPEDFATYYCAQFYHYPLTFGGGTKVEIK ?
Reply | 0.05

Ask | Request the reported OD450 associated with PcOxP_DB03_E02 (scFv, V domains shown, scFv in periplasmic extract) VH: EVQLLESGGGLVQPGGSLRLSCAASGWTFSDFYMEWVRQAPGKGLEWVAASRNKANDYTTEYADSVKGRFTISRDNSKNTLYLQMNSLRAEDTAVYYCARDYYGSSYWYFDVWGQGTLVTVSS VL: DIQMTQSPSSLSASVGDRVTITCTASESLYSQKHKVHYLAWYQQKPGKAPKLLIYGASNRYIGVPSRFSGSGSGTDFTLTISSLQPEDFATYYCAQFYYYPLTFGGGTKVEIK
Reply | 0.05

Ask | Fill blank: measured OD450 of the binder PcOxP_DB03_E08 (scFv, V domains shown, scFv in periplasmic extract) VH: EVQLLESGGGLVQPGGSLRLSCAASGFTFSSFYMEWVRQAPGKGLEWVAASRNAANDYTTEYADSVKGRFTISRDNSKNTLYLQMNSLRAEDTAVYYCARDYYGSSYWYFDLWGQGTLVTVSS VL: DIQMTQSPSSLSASVGDRVTITCTASESLYSSKHKVHYLAWYQQKPGKAPKLLIYGASNRYIGVPSRFSGSGSGTDFTLTISSLQPEDFATYYCAQFYFYPLTFGGGTKVEIK is ____.
Reply | 0.05
